methodNotes: Cytotoxicity against mouse EAC cells assessed as dead cells at 50 uM after 24 hrs by trypan blue dye exclusion method relative to control
Format: functional, Ehrlich
Measured Activity values are reported for all entries that follow.
experimentalReadout: Activity (%)

molecule | experimentalReadout | number
COc1ccc(/C=C/C2=NN(C(N)=S)C(c3ccc(OC)cc3)C2)cc1 (centres undefined) | Activity | 57.5
COc1ccc(/C=C2\CCCC3C2=NN(C2=NC(=O)/C(=C/c4ccc(OC)c(OC)c4)S2)C3c2ccc(OC)cc2)cc1 (centres undefined) | Activity | 40
CCN1C/C(=C\c2ccc(OC)cc2)C2=NN(C(N)=S)C(c3ccc(OC)cc3)C2C1 (centres undefined) | Activity | 66.5
COc1ccc(/C=C2\CCCC3C2=NN(C2=NC(=O)/C(=C/c4ccc(Cl)cc4)S2)C3c2ccc(OC)cc2)cc1 (centres undefined) | Activity | 46
